Experiment: inhibitors of Sendai virus-induced IRF3 signaling, primary screen, TLR/RLR signaling modifier project, cell-based, Sendai virus stimulus, luciferase, 10K MLSCN set (AID 602276);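 further: firefly luciferase from ISG56 promoter only with Renilla not read in this screen; 0% = Sendai virus plus DMSO and 100% = medium plus DMSO without virus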
Details: HEK293 RL24 IRF3 luciferase reporter, at 10 µM, stronger effect = higher value
Task for the reader: assign each of the following molecules its reported inhibition.
Numeric only. Scale: %

Please report the recorded inhibition for `CN(C)CCCN1c2ccccc2Sc2ccc(Cl)cc21` .
16.5

Please report the recorded inhibition for `Brc1cccc(-c2cnc3n2CCCCC3)c1` .
-2.77

Please report the recorded inhibition for `CCN1CCc2c(C#N)c(N3CCOCC3)nc(NCc3ccccc3)c2C1` .
10.8

Please report the recorded inhibition for `Cn1c(=O)c2c(nc(Br)n2CCSc2ncccn2)n(C)c1=O` .
5.45

Please report the recorded inhibition for `C[C@@H]1C[C@H]2[C@@H]3C[C@H](F)C4=CC(=O)C=C[C@]4(C)[C@@]3(F)[C@@H](O)C[C@]2(C)[C@@]1(O)C(=O)CO` .
-11.6

Please report the recorded inhibition for N#CC1(c2ccccc2)CCC(=NO)CC1 (stereo not given) .
10.2

Please report the recorded inhibition for `OC[C@H]1O[C@@H](n2cnc3c(Nc4ccccc4)ncnc32)[C@H](O)[C@@H]1O` .
-32.6

Please report the recorded inhibition for `O=C(O)CCNC(=O)c1ccccc1` .
-13.3

Please report the recorded inhibition for `CCCCCCCC(=O)OCC(=O)[C@@]1(O)CC[C@H]2[C@@H]3CCC4=CC(=O)CC[C@]4(C)[C@H]3[C@@H](O)C[C@@]21C` .
15.2

Please report the recorded inhibition for `Cc1c(NC(=O)c2ccc(=O)oc2)c(=O)n(-c2ccccc2)n1C` .
22.3

* * *

Experiment: inhibitors of E-selectin induction by TNFa, primary screen, imaging, HUVEC, immunofluorescence, MLSMR starter and 10KST1 sets (AID 487);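 further: 100% = median nuclei count of all wells on the same plate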
Details: HUVEC TNFalpha-induced E-selectin immunofluorescence imaging, at 2 µM; measured here: cell number, toxicity
readout: nuclei count (%)
Numeric only. Scale: %

Please report the recorded nuclei count for `CCc1cc2c(=O)c(-c3nc4ccccc4[nH]3)coc2cc1OC(=O)N1CCOCC1` .
149

Please report the recorded nuclei count for CCOC(=O)C1=C(N)c2ccccc2CC1C(C)C (stereo unspecified) .
124

Please report the recorded nuclei count for `OC1(c2cccc(C(F)(F)F)c2)CCN(c2ncnc3c2[nH]c2ccccc23)CC1` .
165

Please report the recorded nuclei count for `COc1ccc(-c2nnc3sc(-c4c(OC)cccc4OC)nn23)cc1` .
131

Please report the recorded nuclei count for `COc1ccccc1-n1c(=O)c2c3c(sc2n2c(SC)nnc12)CCC3` .
169

Please report the recorded nuclei count for `CC/C(C)=C1\SC(N2CCN(C(C)=O)CC2)=NC1=O` .
208

Please report the recorded nuclei count for CC(C)(C)c1ccc(C(O)CCCN2CCC(C(O)(c3ccccc3)c3ccccc3)CC2)cc1 (stereo unspecified) .
108

Please report the recorded nuclei count for CN(CC(O)COc1ccc(OCC(O)CN(C)C2CCCCC2)cc1)C1CCCCC1 (stereo unspecified) .
120

Please report the recorded nuclei count for `CSc1nc2sc3c(c2c2nnnn12)CC(C)(C)OC3` .
187

Please report the recorded nuclei count for `COc1ccc(-c2nnc3sc(-c4ccccc4OC)nn23)cc1` .
153

Please report the recorded nuclei count for `CCOc1ccc2c(C)nc(NC3=NC(C)(C)C=C(C)N3)nc2c1` .
158

Please report the recorded nuclei count for `CCC(c1c(C)n(C)n(-c2ccccc2)c1=O)c1c(C)n(C)n(-c2ccccc2)c1=O` .
125

Please report the recorded nuclei count for `CC1(C)Cc2c(c(-c3ccccc3)[nH]c(=O)c2C#N)CS1` .
131

Please report the recorded nuclei count for COc1cccc2c(=O)c(SC(F)(F)C(F)C(F)(F)F)c(C)[nH]c12 (stereo unspecified) .
105

Please report the recorded nuclei count for COc1ccc(/C(O)=C2\C(=O)C(=O)N(CCN(C)C)C2c2cccc(OC)c2OC)cc1 (stereo unspecified) .
192

Please report the recorded nuclei count for `COc1ccccc1-c1nn2c(-c3ccc(C(C)(C)C)cc3)nnc2s1` .
110

Please report the recorded nuclei count for `C=CCn1cnc2c(c1=O)c1nc3ccccc3nc1n2-c1ccc(C)cc1` .
132

Please report the recorded nuclei count for Cn1c(=O)n(Cc2ccccc2)c(=O)c2c1nc(NCC1CCCO1)n2Cc1ccccc1 (stereo unspecified) .
102

Please report the recorded nuclei count for `CC(C)Cc1nc2n[nH]c(N)c2c2c1CCC2` .
149

Please report the recorded nuclei count for `Oc1c(C=NCc2ccncc2)sc2ccccc12` .
177

Please report the recorded nuclei count for OC(CNCCCN1CCCCC1)COc1ccccc1 (stereo unspecified) .
178

Please report the recorded nuclei count for `C=CCOc1nc2c(c(=O)n(C)c(=O)n2C)n1Cc1ccc(Cl)cc1Cl` .
103

Please report the recorded nuclei count for COc1cccc(C2/C(=C(/O)c3cnn(-c4ccccc4)c3C)C(=O)C(=O)N2CCN(C)C)c1 (stereo unspecified) .
132

Please report the recorded nuclei count for CCN(CC)CCCN1C(=O)C(=O)/C(=C(/O)c2ccccc2)C1c1ccccn1 (stereo unspecified) .
121

Please report the recorded nuclei count for `CCN1CCN(c2nc3c(C)cccn3c(=O)c2/C=C(\C#N)S(=O)(=O)c2ccc(C)cc2)CC1` .
118

Please report the recorded nuclei count for `C=CCc1c(C)nc(SCCC)[nH]c1=O` .
135

Please report the recorded nuclei count for COc1ccccc1C(CC(=O)Nc1nccs1)c1ccco1 (stereo unspecified) .
155

Please report the recorded nuclei count for `Cc1ccc2[nH]c3c(N4CCN(Cc5ccc6c(c5)OCO6)CC4)ncnc3c2c1` .
168

Please report the recorded nuclei count for Cc1cc(C(F)(F)F)nn1CC(=O)NCC1CCCO1 (stereo unspecified) .
137

Please report the recorded nuclei count for `c1csc(-c2nn3c(C4CCCCC4)nnc3s2)c1` .
155

Please report the recorded nuclei count for CCCOC(=O)CSC1=C(C#N)C(c2ccccc2OC)C(C#N)C(=O)N1 (stereo unspecified) .
136

Please report the recorded nuclei count for `Fc1ccccc1-c1nc(NCCCN2CCOCC2)c2ccccc2n1` .
130

Please report the recorded nuclei count for `CSc1sc(C(=O)O)c2c1C(=O)CCC2` .
186

Please report the recorded nuclei count for `Cc1cc(O)c(C(C)C)cc1N=C1CSC(=O)N1` .
98.6

Please report the recorded nuclei count for `C=CCn1c(SCC(=O)OC)nc2sc3c(c2c1=O)CCN(C)C3` .
177

Please report the recorded nuclei count for `COc1ccccc1-c1nnc2sc(C3CCCCC3)nn12` .
161

Please report the recorded nuclei count for OC(CCN1CCCC1)(c1ccccc1)C1CCCCC1 (stereo unspecified) .
106

Please report the recorded nuclei count for OC(CCCN1CCC(O)(c2ccc(Cl)cc2)CC1)c1ccc(F)cc1 (stereo unspecified) .
118

Please report the recorded nuclei count for CC(CCc1ccccc1)NCC(O)c1ccc(O)c(C(N)=O)c1 (stereo unspecified) .
107

Please report the recorded nuclei count for O=C1C(CCS(=O)c2ccccc2)C(=O)N(c2ccccc2)N1c1ccccc1 (stereo unspecified) .
124

Please report the recorded nuclei count for `Cn1c([N+](=O)[O-])cnc1COC(N)=O` .
138

Please report the recorded nuclei count for CCNc1nc(NC(C)C)nc(N(C#N)C(C)C(=O)N(C)C)n1 (stereo unspecified) .
134

Please report the recorded nuclei count for CC(C)OC(=O)C(C#N)c1nc2ccccc2nc1N1CCCC1 (stereo unspecified) .
129

Please report the recorded nuclei count for CCCCNC(=O)C(C#N)c1nc2ccccc2nc1N1CCN(c2ccccc2F)CC1 (stereo unspecified) .
105

Please report the recorded nuclei count for `O=S(=O)(O)c1nc2ccccc2n1Cc1ccc(Cl)cc1Cl` .
149

Please report the recorded nuclei count for `CCC1(c2ccccc2)C(=O)NCNC1=O` .
129

* * *

Task for the reader: assign each of the following compounds its reported inhibition.
Target: Dual specificity protein phosphatase 6 (Homo sapiens)
Test: DUSP6 inhibitors restoring Erk phosphorylation by chemical complementation, primary imaging in DUSP6-transfected HeLa (AID 609);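 further: phospho-Erk level distribution per well compared with pooled transfected vehicle control wells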
Details: HeLa MKP-3 transfected, phospho-Erk imaging KS statistic; at 10 µM; stronger effect = higher value; cells stimulated with TPA for 15 min
Numeric only. Scale: %

Requested read-out inhibition, target or system Dual specificity protein phosphatase 6 (Homo sapiens), entry `CCOC(=O)CNC(=O)Nc1ccccc1C(=O)OC`
-7.67

Requested read-out inhibition, target or system Dual specificity protein phosphatase 6 (Homo sapiens), entry `NNC(=O)c1ccncc1`
16.8

Requested read-out inhibition, target or system Dual specificity protein phosphatase 6 (Homo sapiens), entry CCCCCCCCCCCCCCCC(O)C(N)CO (centres undefined)
25.1

Requested read-out inhibition, target or system Dual specificity protein phosphatase 6 (Homo sapiens), entry `COc1cc(/C=N/O)ccc1OCc1ccc(C(=O)O)cc1`
-0.608

Requested read-out inhibition, target or system Dual specificity protein phosphatase 6 (Homo sapiens), entry `Cc1ccccc1-c1nn2c(-c3ccccc3)nnc2s1`
-2.47

Requested read-out inhibition, target or system Dual specificity protein phosphatase 6 (Homo sapiens), entry Cc1ccc(N2C(=O)CC(N(O)C3CC(=O)N(c4ccc(C)cc4)C3=O)C2=O)cc1 (centres undefined)
-0.584

Requested read-out inhibition, target or system Dual specificity protein phosphatase 6 (Homo sapiens), entry `CCOC(=O)c1c(C)cccc1OCC(N)=O`
-0.159

Requested read-out inhibition, target or system Dual specificity protein phosphatase 6 (Homo sapiens), entry `Cc1cc(=O)oc(C)c1C(=O)NCCN1CCOCC1`
-1.75

Requested read-out inhibition, target or system Dual specificity protein phosphatase 6 (Homo sapiens), entry COc1ccc(OCC(O)Cn2c(Nc3cccc(C)c3)nc3c2c(=O)n(C)c(=O)n3C)cc1 (centres undefined)
26.3

Requested read-out inhibition, target or system Dual specificity protein phosphatase 6 (Homo sapiens), entry `CCOC(=O)c1c(SC)nc(SC)c2c1CCC2`
-5.62

Requested read-out inhibition, target or system Dual specificity protein phosphatase 6 (Homo sapiens), entry `O=C(NCCOCCOCCNC(=O)c1cccnc1)c1cccnc1`
34.8

Requested read-out inhibition, target or system Dual specificity protein phosphatase 6 (Homo sapiens), entry `CCOC(=O)c1[nH]c2ccccc2c1NC(=O)CCN1CCN(C(=O)OCC)CC1`
-5.26

Requested read-out inhibition, target or system Dual specificity protein phosphatase 6 (Homo sapiens), entry `Clc1ccc(SCc2cn3ccsc3n2)cc1`
-11

Requested read-out inhibition, target or system Dual specificity protein phosphatase 6 (Homo sapiens), entry `Cc1ccc2[nH]c3c(c2c1)CN(C(=O)CN1CCN(c2ccccn2)CC1)CC3`
4.72

Requested read-out inhibition, target or system Dual specificity protein phosphatase 6 (Homo sapiens), entry CCC1(C)Cc2c(sc3c2c(=O)n(C)c2nnc(SCc4ccc5c(c4)OCO5)n32)CO1 (centres undefined)
22.3

Requested read-out inhibition, target or system Dual specificity protein phosphatase 6 (Homo sapiens), entry `COc1ccc(CCCNC(=O)CC#N)cc1OC`
17

Requested read-out inhibition, target or system Dual specificity protein phosphatase 6 (Homo sapiens), entry `COc1ccc(/C=C(/C#N)c2cccnc2)cc1OC`
1.48

Requested read-out inhibition, target or system Dual specificity protein phosphatase 6 (Homo sapiens), entry `CCOC(=O)/C(C#N)=C1\Nc2ccccc2N=C1N(CC(C)C)CC(C)C`
3.56

Requested read-out inhibition, target or system Dual specificity protein phosphatase 6 (Homo sapiens), entry `COc1cccc(-c2nnc3sc(-c4ccccc4)nn23)c1`
-15

Requested read-out inhibition, target or system Dual specificity protein phosphatase 6 (Homo sapiens), entry CCOC(=O)c1ccc(N2C(=O)CC(Sc3nnc(C)s3)C2=O)cc1 (centres undefined)
-5.81

Requested read-out inhibition, target or system Dual specificity protein phosphatase 6 (Homo sapiens), entry `Clc1ccc(-c2nnc3sc(Cc4cccs4)nn23)c(Cl)c1`
-9.66

Requested read-out inhibition, target or system Dual specificity protein phosphatase 6 (Homo sapiens), entry `COC(=O)[C@@H](N)Cc1ccc(O)cc1`
11.3

Requested read-out inhibition, target or system Dual specificity protein phosphatase 6 (Homo sapiens), entry `O=C(O)CCCC(=O)Nc1ccn(-c2ccccc2)n1`
20.3

Requested read-out inhibition, target or system Dual specificity protein phosphatase 6 (Homo sapiens), entry CCN(CC)CCN1C(=O)C(=O)/C(=C(/O)c2ccc(Cl)cc2)C1c1ccncc1 (centres undefined)
26.6
